# MEASURED_ON: GDP-bound KRAS wild-type protein (Homo sapiens, UniProt P01116)
# Sequence (P01116 1-188 isoform P01116-2): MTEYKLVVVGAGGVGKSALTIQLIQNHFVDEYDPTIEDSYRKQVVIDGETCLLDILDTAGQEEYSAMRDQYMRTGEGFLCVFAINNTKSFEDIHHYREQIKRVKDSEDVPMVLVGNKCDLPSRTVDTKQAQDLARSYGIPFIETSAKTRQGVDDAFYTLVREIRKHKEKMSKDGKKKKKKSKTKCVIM
# METHOD_NOTES: Binding to KRAS by surface plasmon resonance (SPR), dissociation constant KD
# EXPERIMENTAL_SETUP: 1:1 binding model

{"columns": ["MOLECULAR_STRING", "READOUT_UNITS", "Kd"],
 "data": [
  ["CC[C@H](C)[C@@H]1NC(=O)[C@H](COC)N(C)C(=O)C[C@@H](C(=O)N(C)C)N(C)C(=O)[C@H](C2CCCC2)N(C)C(=O)C2(CC(C)(C)C2)NC(=O)[C@@H]2C[C@@H](OC3CCC3)CN2C(=O)[C@H](CCc2cc(F)c(C(F)(F)F)c(F)c2)NC(=O)CN(C)C(=O)[C@H](CC2CCCCC2)N2CC/C=C\\C[C@@H](C2=O)N(C)C(=O)CN(C2CC2)C1=O", "nM", 1.4],
  ["CCOC[C@H]1C(=O)N[C@@H]([C@@H](C)CC)C(=O)N2CCC[C@H]2C(=O)N(C)[C@H]2C/C=C\\CCN(C2=O)[C@@H](Cc2ccc(C)cc2)C(=O)N(C)CC(=O)N[C@@H](CCc2cc(F)c(C(F)(F)F)c(F)c2)C(=O)N2C[C@H](OCC)C[C@H]2C(=O)NC2(CC(C)(C)C2)C(=O)N(C)[C@@H](C2CCCC2)C(=O)N(C)[C@H](C(=O)N(C)CC)CC(=O)N1C", "nM", 0.62],
  ["CCO[C@@H]1C[C@H]2C(=O)NC3(CC(C)(C)C3)C(=O)N(C)[C@@H](C3CCCC3)C(=O)N(C)[C@H](C(=O)N(C)CC)CC(=O)N(C)[C@@H]([C@@H](C)OC)C(=O)N[C@@H]([C@@H](C)CC)C(=O)N(C)CC(=O)N(C)[C@H]3C/C=C\\CCN(C3=O)[C@@H](Cc3ccc(C)cc3)C(=O)N(C)CC(=O)N[C@@H](CCc3ccc(C(F)(F)F)c(Cl)c3)C(=O)N2C1", "nM", 0.37]
]}
